Biological target: Human recombinant MMP-9 (Homo sapiens, UniProt P14780)
Construct: made in house; host or cells: MMP-9-transfected HT1080 cells (spent media)
Sequence (P14780 107-707 limits assumed): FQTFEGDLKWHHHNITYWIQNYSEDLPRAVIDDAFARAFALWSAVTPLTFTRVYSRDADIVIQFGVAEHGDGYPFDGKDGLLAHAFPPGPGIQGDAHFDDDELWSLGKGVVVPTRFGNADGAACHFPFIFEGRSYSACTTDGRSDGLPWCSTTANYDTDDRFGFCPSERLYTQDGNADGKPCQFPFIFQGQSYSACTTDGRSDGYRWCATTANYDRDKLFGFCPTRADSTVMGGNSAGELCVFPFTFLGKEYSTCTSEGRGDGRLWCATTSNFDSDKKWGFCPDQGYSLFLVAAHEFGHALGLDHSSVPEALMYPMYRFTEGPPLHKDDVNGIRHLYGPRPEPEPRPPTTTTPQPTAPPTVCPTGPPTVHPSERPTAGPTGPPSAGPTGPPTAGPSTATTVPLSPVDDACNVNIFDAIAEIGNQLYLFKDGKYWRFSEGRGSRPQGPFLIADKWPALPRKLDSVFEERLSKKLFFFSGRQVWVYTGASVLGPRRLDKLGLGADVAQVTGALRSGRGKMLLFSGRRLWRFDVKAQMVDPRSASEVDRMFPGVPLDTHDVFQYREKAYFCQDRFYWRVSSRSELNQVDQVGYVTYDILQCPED
Assay: In vitro MMP inhibition, IC50 determination (fluorogenic substrate I)
Assay type: biochemical
Conditions: value outside parenthesis
A collection of compounds and their measured pIC50
Give only the number. pIC50 is defined as minus log10 of concentration in molar units.

// worked examples, pIC50 included
COc1ccc(-c2noc(CCCOc3ccc(S(=O)(=O)C4(C(=O)NO)CCOCC4)cc3)n2)cc1 [Example 237]    5.95
CCCc1ccc(-c2nc(CCCOc3ccc(S(=O)(=O)C4(C(=O)NO)CCN(CCOC)CC4)cc3)oc2C)cc1 [Example 206]    7.23
CCc1ccccc1-c1noc(CCCOc2ccc(S(=O)(=O)C3(C(=O)NO)CCN(CCOC)CC3)cc2)n1 [Example 155]    5.93
COc1cccc(-c2nnc(CCCOc3ccc(S(=O)(=O)C4(C(=O)NO)CCOCC4)cc3)o2)c1 [Example 280]    5.69

Q: What measured pIC50 goes with C[C@@H]1C(=O)N(CCCOc2ccc(S(=O)(=O)C3(C(=O)NO)CCOCC3)cc2)C(=O)N1c1ccccc1 [Example 145] ?
Ans: 5.03

Q: Given the compound CCc1ccc(N2CCN(CCCOc3ccc(S(=O)(=O)C4(C(=O)NO)CCOCC4)cc3)C2=O)cc1 [Example 191] , what is its reported pIC50?
Ans: 6.42

Q: Need pIC50, item O=C(NO)C1(S(=O)(=O)c2ccc(OCCCc3nnc(CC4CCCCC4)o3)cc2)CCOCC1 [Example 262]
Ans: 5.77

Q: Query (compound): COCCN1CCC(C(=O)NO)(S(=O)(=O)c2ccc(OCCCNC(=O)c3ccc(OC(C)C)c(C)c3)cc2)CC1 [Example 230] ; field requested: pIC50
Ans: 5.99

Q: Can you share its pIC50? I mean this compound: O=C(NO)C1(S(=O)(=O)c2ccc(OCCCSc3nc4cc(Cl)ccc4s3)cc2)CCOCC1 [Example 284]
Ans: 7.73
